Below, each entry is listed alongside its reported ASMS ratio (%) n = 1.
systemName: Bcl-2 protein (Recombinant Human Bcl-2 Protein) (Homo sapiens, UniProt P10415)
Construct: purchased Novus NBP2-34889
Sequence (P10415 whole entry): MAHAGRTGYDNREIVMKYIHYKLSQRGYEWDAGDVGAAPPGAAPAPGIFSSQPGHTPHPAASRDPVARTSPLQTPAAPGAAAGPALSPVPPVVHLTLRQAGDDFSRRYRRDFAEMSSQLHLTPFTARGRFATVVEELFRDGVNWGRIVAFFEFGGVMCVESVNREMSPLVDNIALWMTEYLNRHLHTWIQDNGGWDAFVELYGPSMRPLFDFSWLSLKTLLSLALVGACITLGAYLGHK
measurementDescription: Binding evaluation of mixture library compounds to Bcl-2 using AS-MS (affinity selection mass spectrometry)
setupConditions: AS-MS, mixture of 1200 compounds, Bcl-2; ASMS Ratio(%)=(A−C)/B×100; replicate n = 1
Give the number first and the unit second.

CCOc1cccc(-c2cc(CN3CCN(c4ccc(C(=O)NCC56CC7CC(CC(C7)C5)C6)nn4)CC3)cc(OC(C)C)c2)c1	−0.3%

// sample CCOc1cccc(C#Cc2ccccc2CN2CCN(c3ccc(C(=O)NCC(F)(F)F)cc3)CC2)c1 , its ASMS ratio (%) n = 1 was 3.5%

// sample CCOc1cncc(-c2ccc(C(=O)N3CCN(c4ccc(C(=O)NCC56CC7CC(CC(C7)C5)C6)cc4)CC3)cc2F)c1 , its ASMS ratio (%) n = 1 was −1.6%

// sample CCOc1cccc(-c2ccc(CN3CCN(c4ccc(C(=O)NCC(F)(F)F)cc4)CC3)cc2C)c1 , its ASMS ratio (%) n = 1 was 3.3%

====

Below, each entry is listed alongside its reported ASMS ratio (%) n = 2.
systemName: Bcl-2 protein (Recombinant Human Bcl-2 Protein) (Homo sapiens)
Construct: purchased Novus NBP2-34889
measurementDescription: Binding evaluation of mixture library compounds to Bcl-2 using AS-MS (affinity selection mass spectrometry)
setupConditions: AS-MS, mixture of 1200 compounds, Bcl-2; ASMS Ratio(%)=(A−C)/B×100; replicate n = 2
// return numeric value only (unit: %, not printed)

Known ASMS ratio (%) n = 2 results, listed for orientation:
CCOc1cccc(C#Cc2ccccc2CN2CCN(c3ccc(C(=O)NCC45CC6CC(CC(C6)C4)C5)nn3)CC2)c1	−17.1
CCOc1cncc(C#Cc2ccccc2C(=O)N2CCN(c3ccc(C(=O)NCC45CC6CC(CC(C6)C4)C5)cc3)CC2)c1	−1.8

// sample CCOc1cncc(-c2ccc(C(=O)N3CCN(c4ccc(C(=O)NCC56CC7CC(CC(C7)C5)C6)nn4)CC3)c3ccccc23)c1 , its ASMS ratio (%) n = 2 was 0.0

// sample CCOc1cncc(-c2ccc(CN3CCN(c4ccc(C(=O)NCC56CC7CC(CC(C7)C5)C6)cc4)CC3)cc2F)c1 , its ASMS ratio (%) n = 2 was −6.2

====

Below, each entry is listed alongside its reported ASMS ratio (%) n = 2.
systemName: Bcl-2 protein (Recombinant Human Bcl-2 Protein) (Homo sapiens, UniProt P10415)
Construct: purchased Novus NBP2-34889
measurementDescription: Binding evaluation of mixture library compounds to Bcl-2 using AS-MS (affinity selection mass spectrometry)
setupConditions: AS-MS on the mixture of 1200 library compounds; ASMS Ratio(%)=(A−C)/B×100; replicate n = 2
// return numeric value only (unit: %, not printed)

Known ASMS ratio (%) n = 2 results, listed for orientation:
CCOc1cccc(-c2ccc(CN3CCN(c4ccc(C(=O)Nc5ccc(OC)cc5)nn4)CC3)c(OC)c2)c1	1.3
CCOc1cccc(C#Cc2ccccc2C(=O)N2CCN(c3ccc(C(=O)N(CC)CC)cc3)CC2)c1	0.0
CCOc1cncc(-c2cc(CN3CCN(c4ccc(C(=O)N(C)CC56CC7CC(CC(C7)C5)C6)cc4)CC3)cc(OC(F)(F)F)c2)c1	−5.5
CCOc1cccc(C#Cc2ccccc2CN2CCN(c3ccc(C(=O)N(C)CC45CC6CC(CC(C6)C4)C5)nn3)CC2)c1	−3.5
CCOc1cccc(-c2ccccc2CCC(=O)N2CCN(c3ccc(C(=O)Nc4ccc(OC)cc4)cc3)CC2)c1	4.2
CCOc1cncc(-c2csc(CN3CCN(c4ccc(C(=O)Nc5ccc(OC)cc5)nn4)CC3)c2)c1	−0.7
CCOc1cccc(C#Cc2cc(C(=O)N3CCN(c4ccc(C(=O)Nc5ccc(OC)cc5)cc4)CC3)cc(C(F)(F)F)c2)c1	−2.8
CCOc1cccc(-c2cc(CN3CCN(c4ccc(C(=O)N(CC)CC)cc4)CC3)cc(OC(C)C)c2)c1	−0.1
CCOc1cncc(-c2cc(C(=O)N3CCN(c4ccc(C(=O)N(CC)CC)nn4)CC3)cc(C(C)(C)C)c2)c1	0.9
CCOc1cncc(-c2ccc(C(C)N3CCN(c4ccc(C(=O)N(C)CC56CC7CC(CC(C7)C5)C6)cc4)CC3)c(F)c2)c1 (stereo not shown)	0.0

// sample CCOc1cncc(-c2cc(C(=O)N3CCN(c4ccc(C(=O)Nc5ccc(OC)cc5)cc4)CC3)cc(C(F)(F)F)c2)c1 , its ASMS ratio (%) n = 2 was 0.3

// sample CCOc1cccc(-c2ccc(CN3CCN(c4ccc(C(=O)N(CC)CC)cc4)CC3)c(CC)c2)c1 , its ASMS ratio (%) n = 2 was −1.4

// sample CCOc1cncc(-c2cnn(-c3cc(C(=O)N4CCN(c5ccc(C(=O)N(CC)CC)cc5)CC4)cc(C(F)(F)F)c3)c2)c1 , its ASMS ratio (%) n = 2 was 0.3

// sample CCOc1cccc(-c2cc(OC)c(CN3CCN(c4ccc(C(=O)N(C)CC56CC7CC(CC(C7)C5)C6)cc4)CC3)c(OC)c2)c1 , its ASMS ratio (%) n = 2 was −8.0

====

Below, each entry is listed alongside its reported ASMS ratio (%) n = 2.
systemName: Bcl-2 protein (Recombinant Human Bcl-2 Protein) (Homo sapiens, UniProt P10415)
Construct: purchased Novus NBP2-34889
measurementDescription: Binding evaluation of mixture library compounds to Bcl-2 using AS-MS (affinity selection mass spectrometry)
setupConditions: AS-MS on the mixture of 1200 library compounds; ASMS Ratio(%)=(A−C)/B×100; replicate n = 2
// return numeric value only (unit: %, not printed)

Known ASMS ratio (%) n = 2 results, listed for orientation:
CCOc1cccc(-c2cc(C(=O)N3CCN(c4ccc(C(=O)Nc5ccc(OC)cc5)nn4)CC3)cc(C(C)(C)C)c2)c1	−2.7
CCOc1cncc(-c2ccc(CN3CCN(c4ccc(C(=O)N(C)CC56CC7CC(CC(C7)C5)C6)nn4)CC3)cc2C)c1	−17.2
CCOc1cccc(C#Cc2ccccc2CN2CCN(c3ccc(C(=O)Nc4ccc(OC)cc4)nn3)CC2)c1	0.0
CCOc1cccc(-c2csc(CN3CCN(c4ccc(C(=O)N(C)CC56CC7CC(CC(C7)C5)C6)nn4)CC3)c2)c1	0.0
CCOc1cccc(-c2ccc(C(C)N3CCN(c4ccc(C(=O)Nc5ccc(OC)cc5)cc4)CC3)cc2)c1 (stereo not drawn)	2.2
CCOc1cncc(-c2cnn(-c3cc(C(=O)N4CCN(c5ccc(C(=O)N(C)CC67CC8CC(CC(C8)C6)C7)cc5)CC4)cc(C(F)(F)F)c3)c2)c1	−12.4
CCOc1cccc(-c2cc(C(=O)N3CCN(c4ccc(C(=O)N(C)CC56CC7CC(CC(C7)C5)C6)cc4)CC3)cc(C(F)(F)F)c2)c1	0.0
CCOc1cccc(-c2ccccc2CCC(=O)N2CCN(c3ccc(C(=O)N(C)CC45CC6CC(CC(C6)C4)C5)cc3)CC2)c1	−0.6
CCOc1cccc(-c2ccc(C(=O)N3CCN(c4ccc(C(=O)N(CC)CC)cc4)CC3)cc2C)c1	−0.3
CCOc1cncc(C#Cc2ccccc2CN2CCN(c3ccc(C(=O)Nc4ccc(OC)cc4)cc3)CC2)c1	2.3

// below: ASMS ratio (%) n = 2 requested for another molecule
Recorded ASMS ratio (%) n = 2 for CCOc1cccc(-c2cc(CN3CCN(c4ccc(C(=O)N(C)CC56CC7CC(CC(C7)C5)C6)nn4)CC3)cc(OCC)c2)c1 on Bcl-2 protein (Recombinant Human Bcl-2 Protein) (Homo sapiens, UniProt P10415) was −14.2

====

systemName: Bcl-2 protein (Recombinant Human Bcl-2 Protein) (Homo sapiens, UniProt P10415)
Construct: purchased Novus NBP2-34889
measurementDescription: Binding evaluation of mixture library compounds to Bcl-2 using AS-MS (affinity selection mass spectrometry)
setupConditions: n = 1
reportedProperty: ASMS ratio (%)
// return numeric value only (unit: %, not printed)

Known ASMS ratio (%) results, listed for orientation:
CCOc1cccc(-c2ccc(C(C)N3CCN(c4ccc(C(=O)NS(=O)(=O)C(C)(C)C)cc4)CC3)cc2)c1 (stereo not shown)	0.0
CCOc1cccc(-c2ccc(CN3CCN(c4ccc(C(=O)NS(=O)(=O)c5ccc(NCCSc6ccccc6)c(C(F)(F)F)c5)cc4)CC3)c(OC)c2)c1	−15.0
CCOc1cccc(-c2ccc(CN3CCN(c4ccc(C(=O)NS(=O)(=O)C(C)(C)C)nn4)CC3)c(CC)c2)c1	0.0

// sample CCOc1cccc(-c2ccccc2CCC(=O)N2CCN(c3ccc(C(=O)NS(=O)(=O)CCC(F)(F)F)nn3)CC2)c1 , its ASMS ratio (%) was 0.0

// sample CCOc1cccc(-c2ccc(CN3CCN(c4ccc(C(=O)NS(=O)(=O)c5ccc(NCCSc6ccccc6)c(C(F)(F)F)c5)cc4)CC3)c(CC)c2)c1 , its ASMS ratio (%) was 7.5

// sample CCOc1cccc(-c2cc(CN3CCN(c4ccc(C(=O)NS(=O)(=O)CCC(F)(F)F)nn4)CC3)cc(OCC)c2)c1 , its ASMS ratio (%) was 0.0

// sample CCOc1cncc(-c2cc(C(=O)N3CCN(c4ccc(C(=O)NS(=O)(=O)c5ccc(NCCSc6ccccc6)c(C(F)(F)F)c5)cc4)CC3)cc(C(C)(C)C)c2)c1 , its ASMS ratio (%) was 7.1

// sample CCOc1cccc(-c2ccc(C(=O)N3CCN(c4ccc(C(=O)NS(=O)(=O)C(C)(C)C)nn4)CC3)cc2F)c1 , its ASMS ratio (%) was 0.0

// sample CCOc1cncc(-c2ccc(C(=O)N3CCN(c4ccc(C(=O)NS(=O)(=O)c5ccc(NCCSc6ccccc6)c(C(F)(F)F)c5)cc4)CC3)c3ccccc23)c1 , its ASMS ratio (%) was 3.2

// sample CCOc1cncc(-c2ccc(C(C)N3CCN(c4ccc(C(=O)NS(=O)(=O)c5ccc(NCCSc6ccccc6)c(C(F)(F)F)c5)cc4)CC3)cc2)c1 (stereo not shown) , its ASMS ratio (%) was 9.2

// sample CCOc1cccc(-c2cc(C(=O)N3CCN(c4ccc(C(=O)NS(=O)(=O)C(C)(C)C)cc4)CC3)cc(C(F)(F)F)c2)c1 , its ASMS ratio (%) was 0.0

// sample CCOc1cncc(-c2ccc(C(=O)N3CCN(c4ccc(C(=O)NS(=O)(=O)c5ccc(NCCSc6ccccc6)c(C(F)(F)F)c5)cc4)CC3)cc2F)c1 , its ASMS ratio (%) was 4.1

// sample CCOc1cncc(-c2ccc(C(C)N3CCN(c4ccc(C(=O)NS(=O)(=O)C(C)(C)C)cc4)CC3)cc2)c1 (stereo not shown) , its ASMS ratio (%) was 3.9
